Test: Pharmacokinetic assay of SD rats
Format: in vivo
Details: Sprague-Dawley, rat, po; male SD rats, plasma, dose 50 mg/kg (b1219 prints 5 mg/kg)
Recorded AUC(0-t) by entry
measured_property: AUC(0-t)

>>> assay_value("[2H][C@]1(c2ccc(Cl)cc2F)C=C(F)c2cccc(C3CCN(Cc4nc5ccc(C(=O)O)nc5n4C[C@@H]4CCO4)CC3)c2O1")
"10300 ng·h/mL"
>>> assay_value("O=C(O)c1ccc2nc(CN3CCC(c4cccc5c4O[C@@H](c4ccc(Cl)cc4F)C=C5)CC3)n(C[C@@H]3CCO3)c2c1")
"21500 ng·h/mL"
>>> assay_value("O=C(O)c1ccc2nc(CN3CCC(c4cccc5c4O[C@@H](c4ccc(Cl)cc4F)C=C5F)CC3)n(C[C@@H]3CCO3)c2n1")
"35800 ng·h/mL"
>>> assay_value("O=C(O)c1ccc2nc(CN3CCC(c4cccc5c4O[C@@H](c4ccc(Cl)cc4F)C=C5)CC3)n(C[C@@H]3CCO3)c2n1")
"19100 ng·h/mL"
>>> assay_value("N#Cc1ccc([C@H]2C=Cc3cccc(C4CCN(Cc5nc6ccc(C(=O)O)cc6n5C[C@@H]5CCO5)CC4)c3O2)c(F)c1")
"12600 ng·h/mL"
